Where do these numbers come from? They come from PubChem BioAssay (EPA / NIEHS).

# Test system: frog Estrogen Receptor (ER2), gene 100174814
# assay: ATG_frER2_XSP2: Attagene TRANS-FACTORIAL Multi-Species (XSP2) HepG2 Assay for frog Estrogen Receptor (ER2) (AID 2283828)
Results filed as inconclusive are left out. Calls of active or inactive are those of the source. The calls were made as follows: active = hit-call score of the fitted dose curve at least 0.9, where 1 is the maximum; inconclusive = response in the unintended direction; inactive = score below 0.9.
Returns: one label drawn from active, inactive

Incoming: Status in this test for O=S1OCC2C(CO1)C1(Cl)C(Cl)=C(Cl)C2(Cl)C1(Cl)Cl (centres undefined) ?
Outgoing: inactive

Incoming: Status in this test for Oc1ccc(Cl)cc1Cc1ccccc1 ?
Outgoing: inactive

Incoming: Status in this test for O=C(O)C(F)(F)C(F)(F)C(F)(F)C(F)(F)C(F)(F)C(F)(F)C(F)(F)F ?
Outgoing: active

Incoming: Status in this test for CCOCN(C(=O)CCl)c1c(C)cccc1CC ?
Outgoing: inactive

----------
# Read-out: Epidermal growth factor receptor (EGFR), EGFR (gene 1956)
# assay: BSK_hDFCGF_EGFR: BioMAP Diversity Plus: hDFCGF Assay for Epidermal growth factor receptor (EGFR) Biomarker Activity (AID 2283057)
# study.conditions: primary human foreskin fibroblasts; actives raise or lower the signal
Calls of active or inactive are those of the source. Rule for the calls: active = hit-call score of the fitted dose curve at least 0.9, where 1 is the maximum; inactive = score below 0.9.
Returns: one label drawn from active, inactive

* COP(=S)(OC)Oc1ccc(SC)c(C)c1 | inactive
* OCCOc1ccccc1 | inactive
* CNC(=O)CSP(=S)(OC)OC | inactive
* CCC(C)(NC(=O)c1cc(Cl)c(C)c(Cl)c1)C(=O)CCl (stereo not drawn) | active
* CC(C)(C)C(O)C(Oc1ccc(Cl)cc1)n1cncn1 (stereo not drawn) | inactive

Incoming: Status in this test for CCC(C)Nc1c([N+](=O)[O-])cc(C(C)(C)C)cc1[N+](=O)[O-] (stereo not drawn) ?
Outgoing: active

Incoming: Status in this test for COP(=S)(OC)Oc1ccc([N+](=O)[O-])cc1 ?
Outgoing: inactive

Incoming: Status in this test for CC(C)N(C(=O)COc1nnc(C(F)(F)F)s1)c1ccc(F)cc1 ?
Outgoing: inactive

----------
# Read-out: E-selectin (Homo sapiens) (UniProt P16581)
# Sequence (P16581 whole entry, looked up): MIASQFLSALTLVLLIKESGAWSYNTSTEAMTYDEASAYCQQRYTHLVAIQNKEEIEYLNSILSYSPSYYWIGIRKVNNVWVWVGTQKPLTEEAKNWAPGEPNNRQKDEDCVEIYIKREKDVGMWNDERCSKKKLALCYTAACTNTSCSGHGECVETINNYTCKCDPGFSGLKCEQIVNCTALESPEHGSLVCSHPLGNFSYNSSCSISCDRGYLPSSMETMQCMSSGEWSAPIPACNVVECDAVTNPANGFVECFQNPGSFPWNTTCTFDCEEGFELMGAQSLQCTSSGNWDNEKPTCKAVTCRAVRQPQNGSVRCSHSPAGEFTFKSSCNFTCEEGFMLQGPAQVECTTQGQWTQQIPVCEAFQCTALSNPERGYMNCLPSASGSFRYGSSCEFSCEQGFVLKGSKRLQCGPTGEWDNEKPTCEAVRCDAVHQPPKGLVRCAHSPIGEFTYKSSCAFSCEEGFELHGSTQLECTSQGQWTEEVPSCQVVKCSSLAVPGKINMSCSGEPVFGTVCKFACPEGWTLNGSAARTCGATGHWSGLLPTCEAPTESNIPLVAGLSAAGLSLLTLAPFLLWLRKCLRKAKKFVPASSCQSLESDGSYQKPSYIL
# assay: BSK_3C_Eselectin: BioMAP Diversity Plus: 3C Assay for Eselectin Biomarker Activity (AID 2283015)
# study.conditions: primary human endothelial cells (HUVEC); actives raise or lower the signal
Active and inactive are the calls of the source. The calls were made as follows: active = hit-call score of the fitted dose curve at least 0.9, where 1 is the maximum; inactive = score below 0.9.
measured.endpoint: AC50

# count of solved cases: 7
- O=C(NC(=O)c1c(F)cccc1F)Nc1ccc(OC(F)(F)C(F)OC(F)(F)F)c(Cl)c1 (stereo not drawn): 12.7 µM (active)
- COC(=O)c1ccccc1CS(=O)(=O)NC(=O)Nc1nc(OC)cc(OC)n1: inactive
- CCc1ccc(C(=O)NN(C(=O)c2cc(C)cc(C)c2)C(C)(C)C)cc1: inactive
- CC1(c2ccc(Oc3ccccc3)cc2)OC(=O)N(Nc2ccccc2)C1=O (stereo not drawn): 30.9 µM (active)
- Clc1ccccc1-c1nnc(-c2ccccc2Cl)nn1: inactive
- CNC(=O)CSP(=S)(OC)OC: inactive
- N#CN: inactive

Lab note: next compound to report on.
Incoming: Requested read-out: AC50. Entry: Cc1cc(C)nc(NC(=O)NS(=O)(=O)c2ccccc2C(=O)OC2COC2)n1
Outgoing: inactive

----------
# Read-out: Human Leukocyte Antigen - DR isotype (HLADR), HLA-DRA (gene 3122)
# assay: BSK_3C_HLADR: BioMAP Diversity Plus: 3C Assay for Human Leukocyte Antigen - DR isotype (HLADR) Biomarker Activity (AID 2283019)
# study.conditions: primary human endothelial cells (HUVEC); actives raise or lower the signal
The source made the active and inactive calls. How the source made its calls: active means hit-call score of the fitted dose curve at least 0.9, where 1 is the maximum; inactive means score below 0.9.
Returns: one label drawn from active, inactive

Record excerpt, results attached:
- O=C(O)C(F)(F)C(F)(F)C(F)(F)C(F)(F)C(F)(F)C(F)(F)C(F)(F)F: inactive
- [2H]C1([2H])[n+]2ccccc2-c2cccc[n+]2C1([2H])[2H]: inactive

Incoming: Status in this test for CCCN(CCOc1c(Cl)cc(Cl)cc1Cl)C(=O)n1ccnc1 ?
Outgoing: active

Incoming: Status in this test for Clc1ccccc1-c1nnc(-c2ccccc2Cl)nn1 ?
Outgoing: inactive

Incoming: Status in this test for O=C(O)CCCOc1ccc(Cl)cc1Cl ?
Outgoing: inactive
